Quick note: these are IC50 numbers for system: Acetylcholinesterase (Homo sapiens, UniProt P22303)
Sequence (P22303 whole entry): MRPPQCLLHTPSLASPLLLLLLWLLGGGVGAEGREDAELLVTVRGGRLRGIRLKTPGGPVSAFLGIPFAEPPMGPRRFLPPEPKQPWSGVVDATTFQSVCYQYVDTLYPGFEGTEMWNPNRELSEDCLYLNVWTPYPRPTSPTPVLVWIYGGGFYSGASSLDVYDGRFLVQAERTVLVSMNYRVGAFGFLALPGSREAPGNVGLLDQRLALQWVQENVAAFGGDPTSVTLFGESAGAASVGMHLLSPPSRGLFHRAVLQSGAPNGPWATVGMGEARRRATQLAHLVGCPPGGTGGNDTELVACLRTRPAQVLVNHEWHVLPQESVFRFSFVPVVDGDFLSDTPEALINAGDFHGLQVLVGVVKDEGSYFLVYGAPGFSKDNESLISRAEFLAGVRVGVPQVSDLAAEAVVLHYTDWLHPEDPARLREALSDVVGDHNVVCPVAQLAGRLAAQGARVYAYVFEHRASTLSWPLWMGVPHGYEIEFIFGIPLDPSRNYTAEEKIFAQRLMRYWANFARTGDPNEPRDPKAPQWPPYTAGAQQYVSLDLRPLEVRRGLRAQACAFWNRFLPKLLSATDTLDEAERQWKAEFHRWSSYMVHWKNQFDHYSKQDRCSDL

Example entries and their recorded answers appear below.
| Smiles Text | IC50 |
| --- | --- |
| COc1c2c(cc3c1OCO3)[C@]13C=C[C@H](OC)C[C@@H]1N(C2)C[C@H]3OC(=O)C(C)C | > 100 µM |
| COc1c2c(cc3c1OCO3)[C@]13C=C[C@H](OC)C[C@@H]1N(C2)C[C@H]3OC(=O)c1cccc2ccccc12 | > 100 µM |
| COc1cccc(C(=O)O[C@@H]2CN3Cc4c(cc5c(c4OC)OCO5)[C@@]24C=C[C@H](OC)C[C@H]34)c1 | > 100 µM |
| CCCCC(=O)O[C@@H]1C[N@@]2Cc3c(cc4c(c3OC)OCO4)[C@@]13C=C[C@H](OC)C[C@H]23 | > 100 µM |

IC50 for Acetylcholinesterase (Homo sapiens, UniProt P22303) with input COc1ccc(C(=O)O[C@@H]2CN3Cc4c(cc5c(c4OC)OCO5)[C@@]24C=C[C@H](OC)C[C@H]34)cc1OC equals > 100 µM

Form field IC50 for item COc1c2c(cc3c1OCO3)[C@]13C=C[C@H](OC)C[C@@H]1N(C2)C[C@H]3OC(=O)c1ccccc1[N+](=O)[O-] on Acetylcholinesterase (Homo sapiens, UniProt P22303): 54 µM

Result for COc1c2c(cc3c1OCO3)[C@]13C=C[C@H](OC)C[C@@H]1N(C2)C[C@H]3OC(=O)c1cccc([N+](=O)[O-])c1 , tested on Acetylcholinesterase (Homo sapiens, UniProt P22303), IC50: 48 µM
